Recorded values, source PubChem BioAssay.

- protocol: reduced mouse 2C T cell binding to pMHC/ICAM-1 vesicles – MLPCN validation set, flow cytometry, LFA-1/ICAM-1 modulator project, pilot screen (AID 2523)
- applied conditions: 2C mouse CD8+ T cells, at 7 µM, stronger effect = lower value; measured here: CD8+/vesicle+ event percentage
experimental readout: double positive events

Illustrative cases are given below, each with its answer.
>>> assay_result("CCC(NC(C)C)C(O)c1ccc(O)c(O)c1 (configuration not stated)")
"60.7%"
>>> assay_result("CCOC(=O)C(=O)N1CCN(c2ccccc2OC)CC1")
"64.7%"
>>> assay_result("CC(NCCc1ccc(O)cc1)C(O)c1ccc(O)cc1 (configuration not stated)")
"59%"

Could you tell me double positive events for each of these molecules? They are listed below.
1. COc1ccc(NS(=O)(=O)c2ccc(N)cc2)nn1
2. CCOC(=O)C1=C(C)NC(C)=C(C(=O)OC)C1c1cccc(Cl)c1Cl (configuration not stated)
3. Cc1ccc2[nH]c3c(=O)n(CCc4cnc[nH]4)cnc3c2c1

A)
1: 56.9%; 2: 65.9%; 3: 65.2%

Could you tell me double positive events for each of these molecules? They are listed below.
1. COc1ccc2cc(C(=O)Nc3ccc(S(N)(=O)=O)cc3)sc(=O)c2c1OC
2. CCOC(=O)c1ncn2c1CN(C)C(=O)c1cc(F)ccc1-2
3. CNCCCC1c2ccccc2C=Cc2ccccc21
4. Fc1ccc(C(c2ccc(F)cc2)N2CCN(C/C=C/c3ccccc3)CC2)cc1
5. O=c1nc2n(c3c1oc1ccccc13)Cc1ccccc1-2
6. COc1ccc(C(=O)CCN2CCc3cc(OC)c(OC)cc3C2)cc1

A)
1: 57.9%; 2: 58.4%; 3: 71.4%; 4: 56.3%; 5: 56.6%; 6: 59%

###

- measured on: Beta-2 adrenergic receptor (Homo sapiens) (UniProt P07550)
- Sequence (P07550 whole entry, looked up): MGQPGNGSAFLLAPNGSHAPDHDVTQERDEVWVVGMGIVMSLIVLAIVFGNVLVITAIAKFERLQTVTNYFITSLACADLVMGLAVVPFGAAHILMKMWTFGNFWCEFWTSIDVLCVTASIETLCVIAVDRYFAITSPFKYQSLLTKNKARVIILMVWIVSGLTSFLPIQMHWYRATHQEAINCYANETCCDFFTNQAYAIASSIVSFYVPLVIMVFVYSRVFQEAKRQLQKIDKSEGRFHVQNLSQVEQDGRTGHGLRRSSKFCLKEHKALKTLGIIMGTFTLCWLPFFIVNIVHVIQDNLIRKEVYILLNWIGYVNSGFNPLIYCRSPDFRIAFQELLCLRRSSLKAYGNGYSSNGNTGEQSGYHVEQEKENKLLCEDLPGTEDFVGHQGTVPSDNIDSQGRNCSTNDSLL
- protocol: agonist-induced loss of surface beta2AR – cell-based, FAP fluorogen, flow cytometry, validation set, pilot screen (AID 504459);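 further: agonist-driven loss of surface beta2AR via internalization measured by FAP dye flow cytometry; reference of the scale not given here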
- applied conditions: Am2.2-beta2AR cells, at 10 µM, stronger effect = higher value
Activity calls are given as the source filed them.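 How the source made its calls: active means percent response above 42, roughly 3 SD of non-fluorescent test compounds; inactive means the rest.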
experimental readout: response

Illustrative cases are given below, each with its answer.
>>> assay_result("OCCN(CCO)c1nc(N2CCCCC2)c2nc(N(CCO)CCO)nc(N3CCCCC3)c2n1")
"7.65% (inactive)"
>>> assay_result("COc1ccc(O)c(C2=Nc3ccccc3N=C(c3ccccc3)C2)c1")
"-11.7% (inactive)"
>>> assay_result("CC(C)OC(=O)C1C(=O)CC(C)(O)C(C(=O)OC(C)C)C1c1cccc(O)c1 (stereo not given)")
"6.25% (inactive)"
>>> assay_result("CCOc1ccc(C(=O)NCC2(c3ccccc3)CCOCC2)cc1")
"-2.34% (inactive)"

Q) Specify reported response for the compound shown: O=C(/C=C/c1ccc2c(c1)OCO2)NCc1ccc(F)cc1
A) -3.87% (inactive)

###

For each entry below, report its inhibition value.
- measured on: Integrin beta-1 (Homo sapiens) + Integrin alpha-4 (Homo sapiens) (UniProt P13612+P05556)
- Sequence (P05556 whole entry, looked up): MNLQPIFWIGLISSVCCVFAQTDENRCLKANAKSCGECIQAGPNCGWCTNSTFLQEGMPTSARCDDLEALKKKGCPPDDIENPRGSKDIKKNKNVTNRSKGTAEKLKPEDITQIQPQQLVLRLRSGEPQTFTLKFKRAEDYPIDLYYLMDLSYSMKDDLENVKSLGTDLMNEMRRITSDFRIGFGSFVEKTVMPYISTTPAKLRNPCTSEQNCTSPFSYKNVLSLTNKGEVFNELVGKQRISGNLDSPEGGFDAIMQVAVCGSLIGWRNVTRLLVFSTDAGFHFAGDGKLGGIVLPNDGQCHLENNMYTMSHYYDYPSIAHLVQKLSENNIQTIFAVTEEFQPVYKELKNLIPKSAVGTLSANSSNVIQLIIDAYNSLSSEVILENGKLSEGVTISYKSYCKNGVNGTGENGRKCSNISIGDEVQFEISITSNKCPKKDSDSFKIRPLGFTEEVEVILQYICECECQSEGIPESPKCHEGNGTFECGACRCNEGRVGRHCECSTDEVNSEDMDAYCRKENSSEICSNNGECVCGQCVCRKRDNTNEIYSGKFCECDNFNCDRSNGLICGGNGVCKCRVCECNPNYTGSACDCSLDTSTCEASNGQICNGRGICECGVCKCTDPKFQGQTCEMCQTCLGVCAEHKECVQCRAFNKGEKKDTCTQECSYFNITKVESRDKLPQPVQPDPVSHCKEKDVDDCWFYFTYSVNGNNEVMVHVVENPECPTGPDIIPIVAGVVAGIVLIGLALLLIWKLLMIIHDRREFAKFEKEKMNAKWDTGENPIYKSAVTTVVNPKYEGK
- Sequence (P13612 whole entry, looked up): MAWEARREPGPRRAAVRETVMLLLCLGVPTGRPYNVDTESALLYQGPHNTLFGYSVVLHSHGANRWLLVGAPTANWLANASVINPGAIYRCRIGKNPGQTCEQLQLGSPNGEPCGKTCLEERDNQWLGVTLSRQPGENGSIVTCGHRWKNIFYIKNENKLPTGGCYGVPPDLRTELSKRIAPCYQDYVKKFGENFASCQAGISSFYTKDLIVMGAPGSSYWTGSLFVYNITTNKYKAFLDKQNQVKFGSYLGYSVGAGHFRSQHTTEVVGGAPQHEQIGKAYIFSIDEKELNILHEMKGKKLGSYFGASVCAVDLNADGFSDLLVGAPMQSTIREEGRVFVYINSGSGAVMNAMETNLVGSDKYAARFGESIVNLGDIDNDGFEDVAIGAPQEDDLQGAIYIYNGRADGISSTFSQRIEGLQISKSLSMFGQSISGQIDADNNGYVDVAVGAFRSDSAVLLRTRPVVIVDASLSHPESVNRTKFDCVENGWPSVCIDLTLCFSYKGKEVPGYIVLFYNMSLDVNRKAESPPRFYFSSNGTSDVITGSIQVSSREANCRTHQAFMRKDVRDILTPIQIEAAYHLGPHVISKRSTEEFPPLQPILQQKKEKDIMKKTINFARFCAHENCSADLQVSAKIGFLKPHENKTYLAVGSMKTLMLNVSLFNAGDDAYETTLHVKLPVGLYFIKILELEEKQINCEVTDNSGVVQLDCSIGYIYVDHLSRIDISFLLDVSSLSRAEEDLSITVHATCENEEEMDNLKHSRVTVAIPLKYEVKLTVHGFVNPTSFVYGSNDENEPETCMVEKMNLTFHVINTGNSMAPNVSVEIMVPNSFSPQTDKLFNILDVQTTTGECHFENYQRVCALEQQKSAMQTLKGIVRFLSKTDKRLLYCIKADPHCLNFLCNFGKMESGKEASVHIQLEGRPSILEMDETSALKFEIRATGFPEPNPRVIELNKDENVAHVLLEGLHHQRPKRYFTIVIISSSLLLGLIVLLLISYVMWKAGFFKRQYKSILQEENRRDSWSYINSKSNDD
- protocol: alpha4beta1 integrin LIBS antibody binding reduction – U937 cells, HUTS-21 mAb, flow cytometry, validation set, VLA-4 allosteric modulator project, pilot screen (AID 2674);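 further: antibody binding induced by the VLA-4 ligand LDV present at three times its Kd; 0% = LDV ligand with antibody and no compound and 100% = antibody without LDV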
- applied conditions: HUTS-21 LIBS mAb binding, at 6.7 µM, stronger effect = higher value, binding induced by LDV ligand
Numbers only, in %.

>>> assay_result("CC(=O)N1CCN2C(=O)C1CCCC(=O)c1cc(C(C)C)ccc12 (stereo not given)")
-4.52
>>> assay_result("Cc1c(Cc2ccccc2)c(=O)oc2c(CN(C)C)c(O)c(Cl)cc12")
0.58
>>> assay_result("CC(C)CN(C)Cc1c(C(=O)N2CCc3ccccc3C2)nc2ccc(Cl)cn12")
8.29
>>> assay_result("CC(C)(C)OC(=O)COc1cc(OCC(=O)OC(C)(C)C)c2c(=O)cc(-c3ccccc3)oc2c1")
-29.2

Q) Specify reported inhibition for the molecule shown: COC(=O)CN1C(=S)N(c2ccc(F)cc2)C(=O)C1CC(=O)Nc1ccccc1 (stereo not given)
A) 11.7
